Tested on: CSNK1G2
condition-label: Compound Concentration (nM):1000;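 also: KINOMEscan scanMAX binding as percent activity remaining versus control; lower means stronger binding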
readout-type: Percent Control (%)

compound: CCn1c(-c2nonc2N)nc2c(C#CC(C)(C)O)nc(OCCNC)cc21.Cl
numeric-result: 92
--
compound: NS(=O)(=O)c1ccc(N/N=C2\C(=O)Nc3ccc(-c4cnco4)cc32)cc1
numeric-result: 72
--
compound: COC(=O)Nc1nc2ccc(Oc3ccc(NC(=O)Nc4cc(C(F)(F)F)ccc4F)cc3)cc2s1.Cl [GW693917A]
numeric-result: 100

###

We begin with a simple list: items and their reported Percent Control.
Tested on: MAP3K2
condition-label: Compound Concentration (nM):1000

molecule: COc1cc2ncn(-c3cc(O[C@H](C)c4ccccc4Cl)c(C(N)=O)s3)c2cc1OC [GSK237701A]
Percent Control, %: 84

molecule: Cl.O=C(O[C@H]1CN[C@H](C#Cc2cc3ncnc(Nc4ccc5c(cnn5Cc5ccccc5)c4)c3s2)C1)N1CCOCC1 [GSK200398A]
Percent Control, %: 97

molecule: NS(=O)(=O)c1ccc(N/N=C2\C(=O)Nc3ccc(-c4cnco4)cc32)cc1
Percent Control, %: 79

###

Test system: MST3
Construct: gene STK24
condition-label: Compound Concentration (nM):1000
We begin with a simple list: items and their reported Percent Control.

compound: COc1cccc(-n2ncc3c(N/N=C/c4ccncc4)ncnc32)c1 [GW784752X]
Percent Control: 93%

compound: C/C(Nc1ccc(S(N)(=O)=O)cc1)=C1/C(=O)Nc2ccccc21 [GW335962X]
Percent Control: 27%

compound: CC1=C(C(=O)Nc2ccc3[nH]ncc3c2)C(c2ccc(Cl)c(Cl)c2)CC(=O)N1 (centres unmarked) [GSK299115A]
Percent Control: 70%

compound: C[C@@H](Oc1cc(-n2cnc3ccc(OC4CCN(C)CC4)cc32)sc1C(N)=O)c1ccccc1Cl [GSK579289A]
Percent Control: 84%

compound: COc1cc(N2CCN(C(C)C)CC2)ccc1Nc1nc(Nc2ccc(F)cc2C(=O)NC[C@@H](O)CO)c2cc[nH]c2n1 [GSK1392956A]
Percent Control: 90%

compound: Cl.O=S1CCN(Cc2ccc(-c3ccc4ncnc(Nc5ccc(OCc6ccccc6)c(F)c5)c4c3)o2)CC1 [GW576924A]
Percent Control: 100%

compound: CN(C)CCNC(=O)Nc1ccc(N(C)c2ccnc(Nc3ccc(CS(C)(=O)=O)cc3)n2)cc1.Cl [GW830900A]
Percent Control: 91%

compound: NS(=O)(=O)c1ccc(N/N=C2\C(=O)Nc3ccc(-c4cnco4)cc32)cc1 [GW276655]
Percent Control: 77%

compound: NS(=O)(=O)c1ccc(N/N=C2\C(=O)Nc3ccc(C(=O)NCc4ccncc4)cc32)cc1 [GW300657X]
Percent Control: 73%

compound: Cc1cc(O)cc(C)c1/C=C/c1cncc(C(N)=O)c1 [GW435821X]
Percent Control: 100%

compound: Nc1ncnc2occ(-c3ccc(NC(=O)Nc4cc(C(F)(F)F)ccc4F)cc3)c12 [GW770249X]
Percent Control: 82%

###

Tested on: PHKG2
condition-label: Compound Concentration (nM):1000
Quick rule for you: Percent Control at 90% or higher means Y, lower means N.

compound: CC1=C(C(=O)Nc2ccc3[nH]ncc3c2)C(c2ccc3ccccc3c2)CC(=O)N1 (stereo not drawn) [GSK270822A]
assigned-label: Y
--
compound: CN(C)CCNC(=O)Nc1ccc(N(C)c2ccnc(Nc3ccc(CS(C)(=O)=O)cc3)n2)cc1.Cl [GW830900A]
assigned-label: Y
--
compound: Cl.O=C(O[C@H]1CN[C@H](C#Cc2cc3ncnc(Nc4ccc5c(cnn5Cc5ccccc5)c4)c3s2)C1)N1CCOCC1 [GSK200398A]
assigned-label: Y
--
compound: CCS(=O)(=O)c1ccc(OC)c(Nc2ncc(-c3cccc(F)c3)o2)c1 [GW621970X]
assigned-label: Y
--
compound: COc1ccc2c(-c3ccnc(Nc4cccc(OC(F)(F)F)c4)n3)cnn2n1 [GW810372X]
assigned-label: Y
--
compound: COc1cc(C)c(N(C)C(=O)CN(C)C)cc1Nc1nc(Nc2cccc(F)c2C(N)=O)c2cc[nH]c2n1
assigned-label: N
--
compound: Nc1ncnc2occ(-c3ccc(NC(=O)Nc4cc(C(F)(F)F)ccc4F)cc3)c12 [GW770249X]
assigned-label: Y
--
compound: C[C@@H](Oc1cc(-n2cnc3ccc(OC4CCN(C)CC4)cc32)sc1C(N)=O)c1ccccc1Cl [GSK579289A]
assigned-label: N
--
compound: NS(=O)(=O)c1ccc(N/N=C2\C(=O)Nc3ccc(C(=O)NCc4ccncc4)cc32)cc1 [GW300657X]
assigned-label: N
--
compound: Cc1cc(O)cc(C)c1/C=C/c1cncc(C(N)=O)c1 [GW435821X]
assigned-label: Y
--
compound: CN1CCN(C(=O)c2ccc(NC(=O)Nc3ccc(N(C)c4ccnc(Nc5ccc(CS(C)(=O)=O)cc5)n4)cc3)cc2)CC1.Cl [GW830263A]
assigned-label: Y
--
compound: CCc1ccc(Oc2nccc(-c3c(-c4ccc(F)cc4)ncn3C3CCNCC3)n2)cc1
assigned-label: N
--
compound: CCS(=O)(=O)c1ccc(OC)c(Nc2ncc(-c3cccc(OC)c3)o2)c1 [GW580509X]
assigned-label: Y
--
compound: NS(=O)(=O)c1ccc(N/N=C2\C(=O)Nc3ccc(Cl)cc32)cc1 [GW280670X]
assigned-label: Y
--
compound: NS(=O)(=O)c1ccc(N/N=C2\C(=O)Nc3ccc(-c4cnco4)cc32)cc1
assigned-label: N
--
compound: COc1cc(C=NNc2ncnc3c2cnn3-c2ccccc2)ccc1O [GW513184X]
assigned-label: Y
--
compound: CC1=C(C(=O)Nc2ccc3[nH]ncc3c2)C(c2ccc(Cl)c(Cl)c2)CC(=O)N1 (stereo not drawn) [GSK299115A]
assigned-label: N
--
compound: NS(=O)(=O)c1ccc(N/N=C2\C(=O)Nc3ccc(C(=O)NCCc4c[nH]cn4)cc32)cc1 [GW300660X]
assigned-label: N
--
compound: Cl.c1ccc(Cc2nc3ccc(Nc4ncnc5ccccc45)cc3[nH]2)cc1 [GR269666A]
assigned-label: Y
--
compound: CC(C)COC(=O)c1ccc2c(c1)/C(=C/Nc1ccc(S(N)(=O)=O)cc1)C(=O)N2 [GW416981X]
assigned-label: N
--
compound: COc1ccc2[nH]c3c4[nH]c5ccc(OC)cc5c4c4c(c3c2c1)C(=O)NC4=O [GW296115X]
assigned-label: N
--
compound: NS(=O)(=O)c1ccc(Nc2ncc(-c3ccccc3)o2)cc1 [GW572399X]
assigned-label: Y
--
compound: COc1cccc(-n2ncc3c(N/N=C/c4ccncc4)ncnc32)c1 [GW784752X]
assigned-label: Y
